study target: Muscarinic acetylcholine receptor M1 (Homo sapiens)
Sequence (P11229 whole entry): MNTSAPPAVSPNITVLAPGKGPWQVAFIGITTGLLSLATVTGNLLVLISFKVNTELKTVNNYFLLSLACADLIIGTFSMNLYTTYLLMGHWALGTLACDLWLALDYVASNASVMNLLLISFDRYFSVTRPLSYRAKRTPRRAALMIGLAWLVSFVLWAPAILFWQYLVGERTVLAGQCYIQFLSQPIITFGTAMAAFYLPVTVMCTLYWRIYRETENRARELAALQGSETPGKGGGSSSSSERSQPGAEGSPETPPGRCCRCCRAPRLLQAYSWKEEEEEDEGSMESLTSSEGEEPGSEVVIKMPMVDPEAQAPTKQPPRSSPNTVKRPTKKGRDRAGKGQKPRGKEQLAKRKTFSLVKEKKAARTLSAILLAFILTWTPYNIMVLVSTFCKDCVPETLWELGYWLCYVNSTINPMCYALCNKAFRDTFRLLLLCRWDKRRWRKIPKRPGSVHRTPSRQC
assay protocol: Displacement of [3H]-NMS from muscarinic M1 receptor (unknown origin) expressed in mouse A9L cells after 60 mins by scintillation counting method
Assay type: cell-based
pKi: −log10 of the molar value.
reported endpoint: pKi

>  <chemical smiles>
CCN(CC)CCCCC1CCN(CC(=O)N2c3ccccc3NC(=O)c3ccccc32)CC1

>  <recorded number>
8.40

$$$$

====

study target: Muscarinic acetylcholine receptor M2 and M4 (Homo sapiens) (UniProt P08173+P08172)
assay protocol: Selectivity ratio of Ki for human muscarinic M4 receptor expressed in CHO-K9 cells to Ki for human muscarinic M2 receptor expressed in CHO-K9 cells
Assay type: cell-based
Entries and their measured Ratio Ki follow.
reported endpoint: Ratio Ki

>  <chemical smiles>
CC(=O)N[C@@H](Cc1ccc(O)cc1)C(=O)N[C@@H](C)C(=O)N[C@@H](CCCCN)C(=O)NCCN1CCN(CCCCC2CCN(CC(=O)N3c4ccccc4NC(=O)c4ccccc43)CC2)CC1

>  <study target>
Muscarinic acetylcholine receptor M2 and M4 (Homo sapiens) (UniProt P08173+P08172)

>  <recorded number>
28

$$$$
>  <chemical smiles>
CC(=O)N[C@@H](CCCNC(=N)N)C(=O)N[C@@H](CCCCN)C(=O)NCC(=O)NCCCCC1CCN(CC(=O)N2c3ccccc3NC(=O)c3ccccc32)CC1

>  <study target>
Muscarinic acetylcholine receptor M2 and M4 (Homo sapiens) (UniProt P08173+P08172)

>  <recorded number>
11

$$$$
>  <chemical smiles>
CC(=O)N[C@@H](C)C(=O)N[C@@H](C)C(=O)NCCN1CCN(CCCCC2CCN(CC(=O)N3c4ccccc4NC(=O)c4ccccc43)CC2)CC1

>  <study target>
Muscarinic acetylcholine receptor M2 and M4 (Homo sapiens) (UniProt P08173+P08172)

>  <recorded number>
7.5

$$$$
>  <chemical smiles>
CC(=O)N[C@@H](CCCCN)C(=O)N[C@@H](Cc1ccc(O)cc1)C(=O)NCCN1CCN(CCCCC2CCN(CC(=O)N3c4ccccc4NC(=O)c4ccccc43)CC2)CC1

>  <study target>
Muscarinic acetylcholine receptor M2 and M4 (Homo sapiens) (UniProt P08173+P08172)

>  <recorded number>
12

$$$$
>  <chemical smiles>
CC(=O)N[C@@H](CCCNC(=N)N)C(=O)NCCCCC1CCN(CC(=O)N2c3ccccc3NC(=O)c3ccccc32)CC1

>  <study target>
Muscarinic acetylcholine receptor M2 and M4 (Homo sapiens) (UniProt P08173+P08172)

>  <recorded number>
13

$$$$

====

study target: Muscarinic acetylcholine receptor M2 and M5 (Homo sapiens) (UniProt P08172+P08912)
Sequence (P08172 whole entry, looked up): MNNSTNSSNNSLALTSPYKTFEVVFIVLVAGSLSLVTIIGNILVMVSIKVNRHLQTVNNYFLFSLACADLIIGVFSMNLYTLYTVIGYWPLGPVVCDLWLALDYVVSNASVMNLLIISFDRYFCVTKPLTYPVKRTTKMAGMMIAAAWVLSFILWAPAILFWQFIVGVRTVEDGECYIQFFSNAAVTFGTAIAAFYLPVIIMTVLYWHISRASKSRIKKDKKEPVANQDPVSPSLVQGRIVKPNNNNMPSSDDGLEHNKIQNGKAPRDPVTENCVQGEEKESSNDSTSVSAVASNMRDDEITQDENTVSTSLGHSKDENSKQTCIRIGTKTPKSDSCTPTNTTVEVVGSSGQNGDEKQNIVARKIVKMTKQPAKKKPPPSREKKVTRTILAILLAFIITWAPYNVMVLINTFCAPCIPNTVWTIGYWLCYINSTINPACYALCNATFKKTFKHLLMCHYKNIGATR
Sequence (P08912 whole entry, looked up): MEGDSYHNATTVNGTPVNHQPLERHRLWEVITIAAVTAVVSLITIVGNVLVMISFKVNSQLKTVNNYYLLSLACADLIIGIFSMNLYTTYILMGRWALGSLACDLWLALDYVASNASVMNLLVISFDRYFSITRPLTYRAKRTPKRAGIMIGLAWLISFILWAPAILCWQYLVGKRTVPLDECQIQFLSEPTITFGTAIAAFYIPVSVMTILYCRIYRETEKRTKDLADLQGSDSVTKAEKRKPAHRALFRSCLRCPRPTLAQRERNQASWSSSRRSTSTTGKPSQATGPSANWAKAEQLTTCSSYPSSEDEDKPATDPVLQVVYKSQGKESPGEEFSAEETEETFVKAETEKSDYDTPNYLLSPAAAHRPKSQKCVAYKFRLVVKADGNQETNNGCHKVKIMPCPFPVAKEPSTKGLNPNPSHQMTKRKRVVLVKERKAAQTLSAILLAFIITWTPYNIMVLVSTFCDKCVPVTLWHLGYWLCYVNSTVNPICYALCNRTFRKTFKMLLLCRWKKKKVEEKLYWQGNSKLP
assay protocol: Selectivity ratio of Ki for human muscarinic M5 receptor expressed in CHO-K9 cells to Ki for human muscarinic M2 receptor expressed in CHO-K9 cells
Assay type: cell-based
Entries and their measured Ratio Ki follow.

>  <chemical smiles>
CCC(=O)NCc1cc(C(=O)NCCN2CCC(N3CCC(n4c(=O)[nH]c5ccccc54)CC3)CC2)cc(C(=O)NCCN2CCN(CCCCC3CCN(CC(=O)N4c5ccccc5NC(=O)c5ccccc54)CC3)CC2)c1

>  <Ratio Ki>
300

$$$$
>  <chemical smiles>
CC(=O)N[C@@H](CCC(N)=O)C(=O)N[C@@H](CC(C)C)C(=O)NCCCCC1CCN(CC(=O)N2c3ccccc3NC(=O)c3ccccc32)CC1

>  <Ratio Ki>
4.9

$$$$
>  <chemical smiles>
CC(=O)N[C@@H](C)C(=O)N[C@@H](C)C(=O)NCCCCC1CCN(CC(=O)N2c3ccccc3NC(=O)c3ccccc32)CC1

>  <Ratio Ki>
62

$$$$
>  <chemical smiles>
CC(=O)N[C@@H](CCCNC(=N)N)C(=O)N[C@@H](CCCCN)C(=O)NCC(=O)NCCCCC1CCN(CC(=O)N2c3ccccc3NC(=O)c3ccccc32)CC1

>  <Ratio Ki>
260

$$$$
>  <chemical smiles>
CC(=O)N[C@@H](CCCCN)C(=O)N[C@@H](CCCNC(=N)N)C(=O)NCCCCC1CCN(CC(=O)N2c3ccccc3NC(=O)c3ccccc32)CC1

>  <Ratio Ki>
400

$$$$
>  <chemical smiles>
CC(=O)N[C@@H](CCC(N)=O)C(=O)N[C@@H](CC(C)C)C(=O)NCCN1CCN(CCCCC2CCN(CC(=O)N3c4ccccc4NC(=O)c4ccccc43)CC2)CC1

>  <Ratio Ki>
1300

$$$$
>  <chemical smiles>
CC(=O)N[C@@H](Cc1c[nH]c2ccccc12)C(=O)N[C@@H](C)C(=O)N[C@@H](Cc1ccc(O)cc1)C(=O)NCCCCC1CCN(CC(=O)N2c3ccccc3NC(=O)c3ccccc32)CC1

>  <Ratio Ki>
6.2

$$$$

Provenance of the data: ChEMBL document CHEMBL4396879
